Test: Ocular tissue and plasma pharmacokinetics, 15 mg/kg single and BID oral, Dutch Belted rabbits (Example 3/5)
Type: in vivo
Conditions: Dutch Belted, rabbit, retina, oral, 15 mg/kg, DB rabbits, Day 15, 15 mg/kg BID, 6 hr; read-out: Mean Retina Concentration
Procedure: Study design including group designation and dose levels are outlined in Table 4. […] Fifteen Dutch Belted and 5 New Zealand White rabbits were used as un-dosed controls. […] The dose volume was 5 mL/kg/dose for all groups. Safety was assessed with toxicological and ophthalmic examinations including slit lamp biomicroscopy, indirect ophthalmoscopy, rebound tonometry, and ultrasonic corneal pachymetry. Analyst® software (Version 1.6.2) was used to capture the LC-MS/MS data and integrate the peak areas. […]
MEASURED ENDPOINT: concentration at 6 h (ng/g)
Field: numeric (ng/g). Do not append units.

## Task Suppose we examine the compound CC(=O)c1nn(CC(=O)N2C[C@H](F)C[C@H]2C(=O)Nc2cccc(Br)n2)c2ccc(-c3cnc(C)nc3)cc12 [Compound 1] ; what concentration at 6 h value has been reported?
## Result 237
